testTarget: T1, P6-AA-12HGe-S
T1 chain: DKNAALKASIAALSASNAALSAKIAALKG
assayMethodText: two-hybrid library CCmax;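 note: natural log of median RNA to DNA barcode read ratio; higher means stronger binding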
conditionSummary: mean of both orientations
propertyName: interaction score

| binder | interaction score |
| --- | --- |
| DENAALEAYIAALYAYNAALYAEIAALEG [P5-AA-12HGe-Y] | -1.51 |

1. DENAALEAWIAALWAWNAALWAEIAALEG [P5-AA-12HGe-W]
2. DENAALEAMIAALMAMNAALMAEIAALEG [P5-AA-12HGe-M]
3. DENAALEATIAALTATNAALTAEIAALEG [P5-AA-12HGe-T]
stdin: Place the items in sequence of falling interaction score. Write the labels in rank order as requested.
stdout: 1, 2, 3
(1: -0.198, 2: -0.47, 3: -1.32)
